target: Tyrosine-protein kinase JAK1 (Homo sapiens, UniProt P23458)
Sequence (P23458 whole entry): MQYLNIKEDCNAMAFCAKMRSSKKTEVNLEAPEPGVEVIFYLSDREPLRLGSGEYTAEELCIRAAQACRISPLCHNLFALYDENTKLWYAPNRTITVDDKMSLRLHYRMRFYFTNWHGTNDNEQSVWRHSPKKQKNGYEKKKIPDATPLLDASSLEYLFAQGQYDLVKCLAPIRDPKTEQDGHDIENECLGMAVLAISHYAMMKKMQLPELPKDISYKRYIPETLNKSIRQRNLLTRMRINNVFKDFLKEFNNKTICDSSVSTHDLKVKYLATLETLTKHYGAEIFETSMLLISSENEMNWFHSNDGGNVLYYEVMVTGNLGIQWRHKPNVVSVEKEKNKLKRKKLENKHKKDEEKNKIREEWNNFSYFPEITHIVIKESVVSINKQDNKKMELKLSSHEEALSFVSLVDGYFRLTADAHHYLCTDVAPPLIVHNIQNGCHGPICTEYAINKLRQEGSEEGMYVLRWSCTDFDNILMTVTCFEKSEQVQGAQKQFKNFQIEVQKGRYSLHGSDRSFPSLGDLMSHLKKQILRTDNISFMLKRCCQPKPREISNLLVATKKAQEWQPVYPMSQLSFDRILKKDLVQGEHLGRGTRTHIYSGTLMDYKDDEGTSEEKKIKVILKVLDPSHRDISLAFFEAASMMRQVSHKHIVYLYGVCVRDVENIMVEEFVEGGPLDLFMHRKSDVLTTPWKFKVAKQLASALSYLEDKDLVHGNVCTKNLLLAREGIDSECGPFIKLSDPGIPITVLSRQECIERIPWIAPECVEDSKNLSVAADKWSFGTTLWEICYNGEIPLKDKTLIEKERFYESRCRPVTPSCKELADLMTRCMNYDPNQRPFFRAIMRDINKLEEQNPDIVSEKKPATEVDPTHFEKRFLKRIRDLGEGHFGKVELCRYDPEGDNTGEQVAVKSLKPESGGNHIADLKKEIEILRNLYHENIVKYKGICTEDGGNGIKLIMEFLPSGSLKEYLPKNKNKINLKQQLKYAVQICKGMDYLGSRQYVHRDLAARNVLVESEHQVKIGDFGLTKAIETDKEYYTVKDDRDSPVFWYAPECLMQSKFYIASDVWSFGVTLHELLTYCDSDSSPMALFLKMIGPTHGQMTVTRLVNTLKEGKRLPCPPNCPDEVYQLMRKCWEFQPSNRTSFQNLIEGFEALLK
assay-endpoint: pIC50
Bear in mind: pIC50 is minus log10 of a mol/L concentration; give just that figure.

Query string: What value of measured pIC50 is listed for "CC(C)(O)[C@H](F)CN1Cc2cc(NC(=O)c3cnn4cccnc34)c(N3CCOCC3)cc2C1=O" ?
Result string: 6.55

----------
experiment: TAK1-TAB1 Kinase panel; design: species or system Homo sapiens
assay-endpoint: pIC50
Formally, pIC50 is defined as -log10 of the concentration c, with c in mol/L.

Query string: Reported pIC50 for "CC(C)(O)[C@H](F)CN1Cc2cc(NC(=O)c3cnn4cccnc34)c(N3CCOCC3)cc2C1=O" : what is it?
Result string: 6.02

----------
target: Tyrosine-protein kinase JAK2 (Homo sapiens)
Sequence (O60674 whole entry): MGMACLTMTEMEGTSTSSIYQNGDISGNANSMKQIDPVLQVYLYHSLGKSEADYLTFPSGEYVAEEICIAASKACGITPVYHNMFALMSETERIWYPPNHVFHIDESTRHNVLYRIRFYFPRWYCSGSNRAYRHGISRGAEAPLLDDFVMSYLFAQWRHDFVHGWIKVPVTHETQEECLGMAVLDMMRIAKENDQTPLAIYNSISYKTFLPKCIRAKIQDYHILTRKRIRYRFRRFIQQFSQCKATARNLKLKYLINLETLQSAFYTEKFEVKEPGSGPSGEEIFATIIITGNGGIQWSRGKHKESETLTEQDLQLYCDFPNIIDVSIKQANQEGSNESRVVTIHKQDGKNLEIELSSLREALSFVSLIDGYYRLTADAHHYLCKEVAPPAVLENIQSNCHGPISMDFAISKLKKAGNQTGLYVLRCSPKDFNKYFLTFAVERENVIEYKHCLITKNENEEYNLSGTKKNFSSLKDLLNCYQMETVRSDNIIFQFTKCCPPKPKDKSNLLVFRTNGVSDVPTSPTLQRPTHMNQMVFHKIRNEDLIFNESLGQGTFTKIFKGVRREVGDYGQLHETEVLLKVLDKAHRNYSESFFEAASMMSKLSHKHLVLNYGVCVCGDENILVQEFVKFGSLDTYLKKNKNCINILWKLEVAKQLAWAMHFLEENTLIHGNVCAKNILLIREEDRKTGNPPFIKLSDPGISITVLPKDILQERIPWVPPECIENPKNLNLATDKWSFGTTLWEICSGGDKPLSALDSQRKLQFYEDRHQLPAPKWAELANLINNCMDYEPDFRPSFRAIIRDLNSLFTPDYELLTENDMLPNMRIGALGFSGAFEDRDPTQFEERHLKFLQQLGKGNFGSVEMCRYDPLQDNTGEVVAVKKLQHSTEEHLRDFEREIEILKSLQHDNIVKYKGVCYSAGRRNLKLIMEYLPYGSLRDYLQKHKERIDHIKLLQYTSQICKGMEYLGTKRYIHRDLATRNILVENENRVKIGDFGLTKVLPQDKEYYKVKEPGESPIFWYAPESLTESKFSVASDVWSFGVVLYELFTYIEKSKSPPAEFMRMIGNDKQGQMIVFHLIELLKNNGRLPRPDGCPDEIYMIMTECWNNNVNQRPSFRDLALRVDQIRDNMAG
assay-endpoint: pIC50
Keep in mind that pIC50 stands for -log10 of concentration in molar terms.

Query string: Entry under review: "CC(C)(O)[C@H](F)CN1Cc2cc(NC(=O)c3cnn4cccnc34)c(N3CCOCC3)cc2C1=O" . Reported pIC50?
Result string: 6.31
